Data origin: patent US12011444B2

# Test system: EP2 (Homo sapiens (Human), UniProt P43116);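 note: antagonism of PGE2-stimulated cAMP accumulation in SF295 human glioblastoma cells with endogenous EP2, cAMP read by HTRF, expressed relative to DMSO control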
# Sequence (P43116 whole entry): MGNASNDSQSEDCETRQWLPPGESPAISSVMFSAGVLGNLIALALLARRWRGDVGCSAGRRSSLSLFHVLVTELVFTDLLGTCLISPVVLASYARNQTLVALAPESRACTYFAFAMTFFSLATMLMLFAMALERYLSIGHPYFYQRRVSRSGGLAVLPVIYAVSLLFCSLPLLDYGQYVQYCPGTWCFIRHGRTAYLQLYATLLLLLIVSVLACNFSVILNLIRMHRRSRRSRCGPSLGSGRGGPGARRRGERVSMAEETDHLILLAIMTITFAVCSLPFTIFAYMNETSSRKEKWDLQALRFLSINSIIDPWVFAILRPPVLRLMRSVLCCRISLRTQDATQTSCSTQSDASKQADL
Parameter measured: IC50 (nM)
Write the value in nM as a bare number.

Request: Look up and state reported IC50 for Cc1cc2ccccc2n1CCNc1cc(-c2ccc3c(=O)[nH][nH]c3c2)ncn1
Response: 15

Request: Please supply the value of reported IC50 for the item Cc1ccc(F)c2c1cc(C)n2CCNc1cc(-c2ccc(-c3nc(C(=O)O)cs3)cc2)ncn1
Response: 16

Request: Give a short answer stating reported IC50 for Cc1cc2c(F)ccc(C#N)c2n1CCNc1cc(-c2ccc(C(=O)O)c(CC(C)C)c2)ncn1 .
Response: 686

Request: Fill in reported IC50 for this entry: COc1cc(F)cc2c1cc(C#N)n2CCNc1cc(-c2ccc(C(=O)O)c(CC(C)C)c2)ncn1
Response: 41

Request: Please list IC50 recorded for the compound COc1ccc(F)c2c1cc(C)n2CCNc1cc(-c2ccc(C(=O)NCCN(C)C)cc2)ncn1
Response: 131

Request: // Input: CCCCOc1cc(-c2cc(NCCn3c(C)cc4c(OC)ccc(F)c43)ncn2)sc1C(=O)O . Output its IC50 only.
Response: 2

Request: Quick one: give measured IC50 for COc1cc(F)c(F)c2c1cc(C)n2CCNc1cc(-c2ccc(-c3oc(CCC(=O)O)nc3C)cc2)ncn1
Response: 152

Request: For CCCc1cc(-c2cc(NCCn3c(C)cc4c(OC)cc(F)cc43)ncn2)cc(Cl)c1C(=O)O , write its IC50.
Response: 5

Request: Report IC50 for COc1cc(F)cc2c1cc(C)n2CCNc1cc(-c2ccc(-c3nc(C(=O)O)cs3)cc2)ncn1
Response: 11

Request: Identify measured IC50 associated with Cc1ccc(Cl)c2c1cc(C)n2CCNc1cc(-c2ccc(C(=O)O)c(S/C=C/F)c2)ncn1
Response: 49

Request: Supply recorded IC50 for CCc1cc(-c2cc(NCCn3c(C)cc4c(OC)ccc(F)c43)ncn2)cc(F)c1C(=O)O here.
Response: 15

Request: Name the recorded IC50 of the item CCCc1cc(-c2cc(NCCn3c(C)cc4c(OC)c(F)ccc43)ncn2)cc(F)c1C(=O)O in your answer.
Response: 82

Request: Answer with reported IC50 of Cc1noc(-c2ccc(-c3cc(NCCn4c(C)cc5c(C)ccc(F)c54)ncn3)cc2)c1C(=O)O
Response: 122

Request: Return reported IC50. Input compound: Cc1cc(F)cc2c1cc(C)n2CCNc1cc(-c2ccc(C(=O)O)c(OC(F)F)c2)ncn1
Response: 14

Request: Indicate the recorded IC50 value for this compound: COc1ccc(F)c2c1cc(C)n2CCNc1cc(-c2ccc(-c3nc(N)sc3C)cc2)ncn1
Response: 25

Request: Identify the reported IC50 for the following entry. CCOc1cc(-c2cc(NCCn3c(C#N)cc4c(Cl)cc(F)c(F)c43)ncn2)sc1C(=O)O
Response: 11

Request: Tell me its IC50 given Cc1cc2c(Cl)ccc(Cl)c2n1CCNc1cc(-c2ccc(C(=O)O)c(SC3CCC3)c2)ncn1 as the entry.
Response: 31

Request: Please indicate IC50 recorded for CCCc1cc(-c2cc(NCCn3c(C)cc4c(OC)cc(F)cc43)ncn2)cc(F)c1C(=O)O
Response: 17

Request: Return IC50 (reported value) for this compound: Cc1cc2c(Cl)ccc(Cl)c2n1CCNc1cc(-c2ccc(C(=O)O)c(SC(C)C)c2)ncn1
Response: 31

Request: Specify IC50 for CCOc1cc(-c2cc(NCCn3c(C)cc4c(OC)cc(F)c(F)c43)ncn2)sc1C(=O)O and stop.
Response: 4

Request: Give the reported IC50 for this compound. CCCOc1cc(-c2cc(NCCn3c(C)cc4c(OC)ccc(F)c43)ncn2)sc1C(=O)O
Response: 2

Request: State its IC50 for this compound: COc1c(Cl)cc(F)c2c1cc(C)n2CCNc1cc(-c2ccc(C(=O)O)c(CC(C)C)c2)ncn1
Response: 732

Request: Please supply the value of reported IC50 for the item COc1cccc2c1cc(C)n2CCNc1cc(-c2ccc(-c3csc(C)n3)cc2)ncn1
Response: 46

Request: Could you please provide reported IC50 for CCCOc1cc(-c2cc(NCCn3c(C)cc4c(C)c(F)cc(F)c43)ncn2)cc(Cl)c1C(=O)O ? Thanks!
Response: 26

Request: Respond only with IC50 recorded for CCCOc1cc(-c2cc(NCCn3c(C)cc4c(OC)cc(F)cc43)ncn2)cc(F)c1C(=O)O
Response: 24

Request: Answer with reported IC50 of COc1cc(F)cc2c1cc(C)n2CCNc1cc(-c2ccc(C(=O)O)c(C(C)(C)C)c2)ncn1
Response: 119

Request: Return IC50 (reported value) for this compound: COc1cc(-c2cc(NCCn3c(C)cc4c(OC)ccc(F)c43)ncn2)ccc1-c1nnn[nH]1
Response: 6

Request: Answer with reported IC50 of CCOc1cc(-c2cc(NCCn3c(C)cc4ccccc43)ncn2)ccc1-c1nnn[nH]1
Response: 2

Request: Please supply the value of reported IC50 for the item Cc1cc2c(F)c(F)cc(Cl)c2n1CCNc1cc(-c2ccc(C(=O)O)c(SC(C)C)c2)ncn1
Response: 17

Request: Let me know recorded IC50 for COc1ccc(F)c2c1cc(C)n2CCNc1cc(-c2ccc(-c3nnc(C)o3)c(F)c2)ncn1 , thanks.
Response: 74

Request: Supply measured IC50 of CCCOc1cc(-c2cc(NCCn3c(C)cc4c(OC)ccc(F)c43)ncn2)ccc1C(=O)O in your reply.
Response: 8
